assayed.target: Recombinant purified human JAK3 (Homo sapiens, UniProt P52333)
measurement.description: JAK3 kinase inhibitory activity, ADP-Glo kinase assay (Promega V9441)
experimental.setup: ATP 5 uM, 4 ng JAK3 per reaction, 1 hour 30 °C, chemiluminescence
pIC50: −log10 of the molar value.
Quick rule for you: pIC50 at 9 or higher means yes (1), lower means no (0).

Below, 8 molecules whose answers are already recorded.
1) C=CC(=O)N1CCC[C@@H](Sc2nc(Nc3cnn(CC(C)C)c3)nc3[nH]nc(Cl)c23)C1 [Example 113]	no (0)
2) C=CC(=O)N1CCC[C@@H](Nc2nc(Nc3ccc(-n4nc(C)cc4C)cc3)nc3[nH]cc(C)c23)C1 [Example 80]	no (0)
3) C=CC(=O)N1CC[C@@H](C)[C@@H](Nc2nc(Nc3cnn(CC(F)F)c3)nc3[nH]nc(SC)c23)C1 [Example 133]	no (0)
4) CCn1cc(Nc2nc(N[C@@H]3CCCN(C(=O)/C(C#N)=C/C4CC4)C3)c3c(F)c[nH]c3n2)cn1 [Example 182]	no (0)
5) C=CC(=O)N1CCC[C@@H](Nc2nc(Nc3ccc(N4CCOCC4)cc3F)nc3[nH]cc(Cl)c23)C1 [Example 97]	no (0)
6) C[C@@H]1CCN(C(=O)CC#N)C[C@@H]1N(C)c1nc(Nc2ccc(N3CCN(C)CC3)cc2)nc2[nH]ccc12 [Example 28]	no (0)
7) C=CC(=O)N1CC[C@@H](C)[C@@H](Nc2nc(Nc3cnn(CC(F)(F)F)c3)nc3[nH]nc(Cl)c23)C1 [Example 120]	no (0)
8) C=CC(=O)N1CCC[C@@H](Nc2nc(Nc3cnn(CC(F)(F)F)c3)nc3[nH]nc(Cl)c23)C1 [Example 56]	yes (1)

INPUT: Determine whether this molecule has pIC50 no lower than 9: C=CC(=O)N1CC[C@@H](C)[C@@H](Nc2nc(Nc3cnn(CC#N)c3)nc3[nH]nc(Cl)c23)C1 [Example 126]
OUTPUT: no (0)

INPUT: Exam item: decide whether the reported pIC50 for C=CC(=O)N1CC[C@@H](F)[C@@H](Nc2nc(Nc3cnn(CC)c3)nc3[nH]ccc23)C1 [Example 76] is at least 9.
OUTPUT: yes (1)

----------
As shown below, each of these compounds has a reported IC50 value.
assayed.target: Recombinant purified human JAK3 (Homo sapiens, UniProt P52333)
Sequence (P52333 1-1124): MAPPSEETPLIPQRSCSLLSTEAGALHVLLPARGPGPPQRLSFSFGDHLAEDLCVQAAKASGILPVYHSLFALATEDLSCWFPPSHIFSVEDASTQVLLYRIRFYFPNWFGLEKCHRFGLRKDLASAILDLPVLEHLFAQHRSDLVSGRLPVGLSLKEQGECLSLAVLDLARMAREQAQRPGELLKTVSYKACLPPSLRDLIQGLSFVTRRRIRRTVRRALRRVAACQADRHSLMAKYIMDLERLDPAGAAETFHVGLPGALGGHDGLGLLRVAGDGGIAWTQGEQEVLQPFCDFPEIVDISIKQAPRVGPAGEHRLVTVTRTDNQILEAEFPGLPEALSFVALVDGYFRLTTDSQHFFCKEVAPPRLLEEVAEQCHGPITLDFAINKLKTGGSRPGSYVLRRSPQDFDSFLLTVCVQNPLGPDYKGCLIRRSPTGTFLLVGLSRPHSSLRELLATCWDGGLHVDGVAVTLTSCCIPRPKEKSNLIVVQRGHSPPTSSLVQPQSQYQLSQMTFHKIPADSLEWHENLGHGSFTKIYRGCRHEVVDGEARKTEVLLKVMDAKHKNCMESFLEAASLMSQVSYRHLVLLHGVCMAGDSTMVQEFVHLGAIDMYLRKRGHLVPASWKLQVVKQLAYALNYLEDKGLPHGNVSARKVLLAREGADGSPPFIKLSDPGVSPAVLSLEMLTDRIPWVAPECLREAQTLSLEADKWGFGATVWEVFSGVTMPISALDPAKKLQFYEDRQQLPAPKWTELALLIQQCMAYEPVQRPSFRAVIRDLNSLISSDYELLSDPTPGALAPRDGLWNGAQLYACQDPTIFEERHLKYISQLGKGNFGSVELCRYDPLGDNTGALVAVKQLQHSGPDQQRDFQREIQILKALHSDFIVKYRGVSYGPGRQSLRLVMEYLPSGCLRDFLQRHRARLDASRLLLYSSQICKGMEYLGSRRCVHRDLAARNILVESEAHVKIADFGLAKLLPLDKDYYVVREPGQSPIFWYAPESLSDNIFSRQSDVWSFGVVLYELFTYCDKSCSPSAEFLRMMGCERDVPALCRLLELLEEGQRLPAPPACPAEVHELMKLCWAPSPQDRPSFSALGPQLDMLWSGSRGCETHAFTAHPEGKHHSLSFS
measurement.description: JAK3 kinase inhibitory activity, ADP-Glo kinase assay (Promega V9441)
experimental.setup: ATP 5 uM, 4 ng JAK3 per reaction, 1 hour 30 °C, chemiluminescence
Response body: numeric value in nM, unit text excluded.

The following compounds have reported results that may help.
1) C=CC(=O)N1CCC[C@@H](Nc2nc(Nc3ccc(N4CCN(C)CC4)cc3)nc3[nH]cc(Cl)c23)C1	1.1
2) C=CC(=O)N1CCC[C@@H](Nc2nc(Nc3cnn(C4CC4)c3)nc3[nH]ncc23)C1	5.7
3) CCn1cc(Nc2nc(S[C@@H]3CCCN(C(=O)/C(C#N)=C/C4CC4)C3)c3c(Cl)c[nH]c3n2)cn1	1.1

Switching to the query record.
INPUT: Give its IC50 value. Item: `CN1CCN(c2ccc(Nc3nc(N[C@@H]4CCCN(C(=O)C#CC5CC5)C4)c4c(Cl)c[nH]c4n3)cc2)CC1`
OUTPUT: 38.5

----------
Entries and their measured pIC50 follow.
assayed.target: Recombinant purified human BTK (Homo sapiens, UniProt Q06187)
Sequence (Q06187 whole entry): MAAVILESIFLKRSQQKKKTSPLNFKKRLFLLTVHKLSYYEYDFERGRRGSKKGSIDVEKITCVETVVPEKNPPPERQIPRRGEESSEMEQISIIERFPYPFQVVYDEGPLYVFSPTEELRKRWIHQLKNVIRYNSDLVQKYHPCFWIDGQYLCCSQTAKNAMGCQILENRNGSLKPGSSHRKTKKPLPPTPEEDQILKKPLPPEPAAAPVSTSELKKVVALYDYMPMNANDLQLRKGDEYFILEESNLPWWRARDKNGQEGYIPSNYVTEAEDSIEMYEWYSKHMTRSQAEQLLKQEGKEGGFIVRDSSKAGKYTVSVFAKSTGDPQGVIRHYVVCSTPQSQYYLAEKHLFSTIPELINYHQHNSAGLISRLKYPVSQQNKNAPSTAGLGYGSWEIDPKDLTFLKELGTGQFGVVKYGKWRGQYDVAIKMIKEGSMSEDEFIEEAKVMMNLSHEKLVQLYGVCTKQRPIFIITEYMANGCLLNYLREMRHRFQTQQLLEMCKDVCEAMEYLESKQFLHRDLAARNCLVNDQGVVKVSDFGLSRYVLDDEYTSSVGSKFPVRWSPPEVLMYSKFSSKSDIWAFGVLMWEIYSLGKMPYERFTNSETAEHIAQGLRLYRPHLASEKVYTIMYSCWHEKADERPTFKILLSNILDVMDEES
measurement.description: BTK kinase inhibitory activity, ADP-Glo kinase assay (Promega V9071)
experimental.setup: ATP 10 uM, 8 ng BTK per reaction, 1 hour 30 °C, chemiluminescence
Scale: pIC50 equals -log10([C]), with [C] in mol/L.

Below: 5 compounds and their reported pIC50.
1. C=CC(=O)N1CCC[C@@H](N(C)c2nc(Nc3cnn(CC)c3)nc3[nH]nc(Cl)c23)C1 [Example 118]	8.89
2. C=CC(=O)N1CCC[C@@H](Nc2nc(Nc3ccc(-n4nc(C)cc4C)cc3)nc3[nH]cc(C)c23)C1 [Example 80]	7.48
3. C=CC(=O)N1CC[C@@H](C)[C@@H](Nc2nc(Nc3cnn(C(F)F)c3)nc3[nH]nc(Cl)c23)C1 [Example 127]	8.82
4. C=CC(=O)N1CCC[C@@H](Nc2nc(Nc3cnn(CC(F)F)c3)nc3[nH]cc(Cl)c23)C1 [Example 39]	8.72
5. C=CC(=O)N1CCC[C@@H](Nc2nc(Nc3cnn(CC(C)C)c3)nc3[nH]nc(Cl)c23)C1 [Example 55]	8.92

INPUT: Using the record for C=CC(=O)N1CCC[C@@H](N(C)c2nc(Nc3cnn(CC(F)F)c3)nc3[nH]ccc23)C1 [Example 103] , report its pIC50.
OUTPUT: 7.68

INPUT: I am curious: what pIC50 value has been reported for C=CC(=O)N1CC[C@@H](C)[C@@H](Nc2nc(Nc3cnn(CC#N)c3)nc3[nH]nc(SC)c23)C1 [Example 134] ?
OUTPUT: 8.74

INPUT: Fill in: pIC50 of C=CC(=O)N1CCC[C@@H](Nc2nc(Nc3cnn(CCN4CCOCC4)c3)nc3[nH]cc(Cl)c23)C1 [Example 40] is ___
OUTPUT: 8.74

----------
assayed.target: Recombinant purified human BTK (Homo sapiens)
measurement.description: BTK kinase inhibitory activity, ADP-Glo kinase assay (Promega V9071)
experimental.setup: ATP 10 uM, 8 ng BTK per reaction, 1 hour 30 °C, chemiluminescence
readout.kind: pIC50
Field pIC50 (float): negative decimal logarithm of the concentration in molar.

Below are worked cases with known answers.
1) C=CC(=O)N1CCC[C@@H](Nc2nc(Nc3cnn(CC(C)C)c3)nc3[nH]ncc23)C1	8.77
2) C=CC(=O)N1CCC[C@@H](Nc2nc(Nc3cnn(C)c3)nc3[nH]nc(Cl)c23)C1	8.54
3) C=CC(=O)N1CCC[C@@H](Nc2nc(Nc3cnn(CCN4CCOCC4)c3)nc3[nH]ncc23)C1	8.96
4) C=CC(=O)N1CCC[C@@H](Nc2nc(Nc3cnn(CC(=O)NC)c3)nc3[nH]cc(Cl)c23)C1	8.77
5) C=CC(=O)N1CCC[C@@H](Oc2nc(Nc3cnn(CC)c3)nc3[nH]ccc23)C1	8.52
6) C=CC(=O)N1CCC[C@@H](Nc2nc(Nc3cnn(C4CC4)c3)nc3[nH]nc(C)c23)C1	8.54
7) C/C=C/C(=O)N1CCC[C@@H](Nc2nc(Nc3ccc(N4CCN(C)CC4)cc3)nc3[nH]cc(Cl)c23)C1	6.01
8) C=CC(=O)N1CCC[C@@H](Nc2nc(Nc3cnn(C)c3)nc3[nH]nc(SC)c23)C1	9.12

Proceeding to the next molecule to report its pIC50.
INPUT: pIC50 for `C=CC(=O)N1CCC[C@@H](Nc2nc(Nc3cnn(CC(F)F)c3)nc3[nH]nc(C)c23)C1` ?
OUTPUT: 8.85
